Target: Recombinant STAT3 protein (STAT3 (G127-I722)) (Homo sapiens)
Construct: Recombinant STAT3 protein (STAT3 (G127-I722))
Sequence (P40763 127-722): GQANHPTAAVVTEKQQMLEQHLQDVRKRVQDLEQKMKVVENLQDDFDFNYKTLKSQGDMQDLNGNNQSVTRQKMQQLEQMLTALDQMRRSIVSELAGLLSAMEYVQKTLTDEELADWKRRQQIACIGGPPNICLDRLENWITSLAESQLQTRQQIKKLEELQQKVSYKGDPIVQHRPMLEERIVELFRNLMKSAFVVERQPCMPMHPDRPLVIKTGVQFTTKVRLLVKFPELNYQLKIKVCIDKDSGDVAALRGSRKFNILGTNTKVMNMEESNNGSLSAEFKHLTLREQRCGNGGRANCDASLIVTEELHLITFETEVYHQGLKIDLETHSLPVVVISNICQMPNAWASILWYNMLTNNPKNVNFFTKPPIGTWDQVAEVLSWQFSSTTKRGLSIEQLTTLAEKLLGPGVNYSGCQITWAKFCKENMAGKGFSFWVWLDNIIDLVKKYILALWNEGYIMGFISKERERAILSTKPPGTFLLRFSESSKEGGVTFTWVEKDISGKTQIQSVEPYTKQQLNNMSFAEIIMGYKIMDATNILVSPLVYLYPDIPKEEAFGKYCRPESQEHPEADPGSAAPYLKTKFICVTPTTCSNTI
Experiment: STAT3 Fluorescence Polarization (FP) Assay
Format: binding
Conditions: STAT3 25 nM, probe 5-FAM-GpYLPQTV-NH2 2 nM, 45-minute incubation; read-out: STAT3 (FP assay IC50)
measure-name: IC50

Consider the compound `O=C(N[C@H]1CC[C@H](O)C[C@H]2CC[C@@H](C(=O)N3CC(n4ccnc4)C3)N2C1=O)c1cc2cc(C(F)(F)P(=O)(O)O)ccc2s1` . State its measured IC50.
< 100 nM

Consider the compound O=C(N[C@H]1CCCC[C@H]2CC[C@@H](C(=O)N3CCN(C(=O)c4cn[nH]c4)CC3)N2C1=O)c1cc2cc(C(F)(F)P(=O)(O)O)ccc2s1 [Compound 118B] . State its measured IC50.
100 to 1000 nM

Consider the compound N#C[C@@H]1CN(C(=O)[C@@H]2CC[C@@H]3CCCC[C@H](NC(=O)c4cc5cc([C@H](F)P(=O)(O)O)ccc5s4)C(=O)N32)C[C@H]1c1ccccc1 (single isomer, unassigned) . State its measured IC50.
1000 to 10000 nM

Consider the compound N#C[C@@H]1CN(C(=O)[C@@H]2CC[C@@H]3CCCCC[C@H](NC(=O)c4cc5cc(C(F)(F)P(=O)(O)O)ccc5s4)C(=O)N32)C[C@H]1c1ccccc1 (mixture of isomers) . State its measured IC50.
1000 to 10000 nM

Consider the compound `Cc1[nH]nc2ccc(NC(=O)[C@@H]3CC[C@@H]4CCCC[C@H](NC(=O)c5cc6cc(C(F)(F)P(=O)(O)O)ccc6s5)C(=O)N43)cc12` . State its measured IC50.
100 to 1000 nM

Consider the compound `N#Cc1cccc(C2CN(C(=O)[C@@H]3CC[C@@H]4CCC[C@H](NC(=O)c5cc6cc(C(F)(F)P(=O)(O)O)ccc6s5)C(=O)N43)C2)c1` . State its measured IC50.
< 100 nM

Consider the compound N#C[C@@H]1CN(C(=O)[C@@H]2CC[C@@H]3CCCC[C@H](NC(=O)c4ccc5ccc(C(F)(F)P(=O)(O)O)cc5c4)C(=O)N32)C[C@H]1c1cc[nH]c(=O)c1 (single isomer, unassigned) . State its measured IC50.
100 to 1000 nM

Consider the compound N#C[C@@H]1CN(C(=O)[C@@H]2C[C@@H](O)[C@@H]3CCCCC[C@H](NC(=O)c4cc5cc(C(F)(F)P(=O)(O)O)ccc5s4)C(=O)N23)C[C@H]1c1ccccc1 (relative stereo) . State its measured IC50.
1000 to 10000 nM

Consider the compound `O=C(N[C@H]1CCC[C@H]2CC[C@@H](C(=O)N3CC(c4cccnc4)C3)N2C1=O)c1cc2cc(C(F)(F)P(=O)(O)O)ccc2s1` . State its measured IC50.
< 100 nM

Consider the compound `O=C(N[C@H]1CC[C@H](O)C[C@H]2CC[C@@H](C(=O)N3CC(C(=O)N4CCOCC4)C3)N2C1=O)c1cc2cc(C(F)(F)P(=O)(O)O)ccc2s1` . State its measured IC50.
100 to 1000 nM
